// reported pIC50 per item
Target or test system: Type-1 angiotensin II receptor (Oryctolagus cuniculus)
Sequence (P34976 whole entry): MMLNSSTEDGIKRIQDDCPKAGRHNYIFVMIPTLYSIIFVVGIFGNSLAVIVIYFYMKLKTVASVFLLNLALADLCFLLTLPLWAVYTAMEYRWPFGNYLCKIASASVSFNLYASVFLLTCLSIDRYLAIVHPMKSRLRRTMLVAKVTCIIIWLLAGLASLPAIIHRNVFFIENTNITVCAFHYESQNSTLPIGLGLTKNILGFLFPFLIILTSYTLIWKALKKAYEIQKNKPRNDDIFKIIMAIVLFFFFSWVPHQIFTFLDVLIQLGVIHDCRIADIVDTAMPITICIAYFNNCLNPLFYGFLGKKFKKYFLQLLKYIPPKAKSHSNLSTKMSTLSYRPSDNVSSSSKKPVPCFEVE
Assay explanation: Inhibition of angiotensin Angiotensin II receptor, type 1 in rabbit aorta using [125I-Sar1,Ile8] angiotensin II binding assay
Format: tissue-based
pIC50: −log10 of the molar value.

Observe how each entry below is paired with its result.
Report measured pIC50; entry is `CCCCCN(CCCCC)C(=O)N1CCN(C(=O)N(c2ccccc2)c2cccc(OC)c2)[C@H](C(=O)O)C1`
< 5.00

Name the recorded pIC50 of the item `CCCCCN(CCCCC)C(=O)N1CCN(C(=O)N(c2ccccc2)c2ccccc2)[C@H](CCO)C1` in your answer.
< 5.00

From here, focus on the item given below.
Determine from records and report pIC50 for `CCCCCN(CCCCC)C(=O)N1CCN(C(=O)N(c2ccccc2)c2ccc(C(=O)OCC)cc2)[C@H](C(=O)O)C1`
< 5.00

Cited source for all entries: ChEMBL document CHEMBL1127116
